meta.source: PubChem BioAssay (NCI)

- System: SNB-19 CNS
- protocol-notes: NCI-60 one-dose screen, 48 h
- study-conditions: 10 µM unless noted
Compounds without any hit were thinned out: in the full panel of roughly 83,000, 20% have a hit. The source made the active and inactive calls. Rule for the calls: active = growth percent below 10; inactive = the rest.
Could you please pick one outcome from this set? 1 = active, -1 = inactive

Use the examples below as a reference point.
COc1cccc(/C=C2\CCc3ccccc3C2=O)c1 ... -1
CCN1C(=O)N(CC)C2C1NN=c1s/c(=C3\C(=O)N(C)c4ccccc43)c(=O)n12 (configuration not stated) ... -1
CCN=c1sc2c(n1NC(=O)c1cc3ccc1CCc1ccc(cc1)CC3)C(=O)c1ccccc1C2=O ... 1
COc1cc(/C=C/c2cc(/C=C/c3ccc(O)c(OC)c3)n(C(=O)Nc3ccc(C)cc3C)n2)ccc1O ... 1

Status in this test for C=CCn1c(SCC(=O)Nc2ccc(C(=O)/C=C/c3ccc(Cl)cc3)cc2)nnc1-c1ccc(Cl)c(Cl)c1 ? -1

Entry COc1ccc(/C=N/NC(=O)Cn2nnc3ccccc32)cc1 please -1

Similarly, N#Cc1c(-c2ccc(F)cc2)cc(-c2cccc(Cl)c2)[nH]c1=O ? -1

// query: CC1=C2[C@@H](CC1)[C@]1(C)O[C@@](C(C)C)(C[C@H]1OC(=O)CO)[C@H]2OC(=O)CCCc1ccccc1 -1

What do you get for COc1cc(CNC(=O)CCCC/C=C/C(C)C)ccc1OCc1cn(-c2ccc(C(F)(F)F)cc2)nn1 ? -1

Also need COC1=C(OC)C(=O)C(CCCCCCCCCCO)=C(C)C1=O , thanks. -1

// repeat for CCNCCNc1c(C)c(-c2ccc(C(F)(F)F)cc2)c(C#N)c2nc3ccccc3n12 and report -1

Proceed to C#CCOc1cccc(Nc2c(Cl)c(CCl)nc3ccc(Oc4ccccc4)cc23)c1 -1

Continue with O=C(Nc1ccc2c(c1)-c1ccccc1C2)C1CC(=O)N(c2ccc3c(c2)OCO3)C1 (configuration not stated) -1

Next record, please: CC(C)=CC(=O)C1C(=O)c2ccccc2C1=O -1

Queued: CCN1C(=O)N(CC)C2C1NN=c1s/c(=C\c3ccc(F)cc3)c(=O)n12 (configuration not stated) -1

Continue with CO[C@]12C=C/C(=C(/C(=O)OCc3cccnc3)C(=O)CCCCCCCC[C@]3(OC)C=C/C(=C(/C(=O)OCc4cccnc4)C(=O)CCCCCCCC1)O3)O2 1

Can you handle COC1CC(O)C2=C(CC3C(/C(C)=C\CC=C(C)C)CCC3(C)O2)C1=O (configuration not stated) next? -1

Again, but for CC(C)(C)c1ccc(C(=O)Nc2sc3c(c2C#N)CCC(=O)C3)cc1 -1

* * *

The following compounds are shown together with reported growth values.
- System: PC-3 prostate
- protocol-notes: NCI-60 one-dose screen, 48 h (100 = growth as untreated, 0 = no growth, -100 = all killed)
- study-conditions: 10 µM unless noted
This is part of a sample that, as a whole, favours compounds with a hit. Of some 83,000 tested, about 20% had one in any assay.
// units = %; emit number, no label

Sample answers from the record:
COc1cc(OCc2cccc(-c3ccc4c(c3)OCCO4)c2C)cc(OC)c1C=O ... 65.5
O=C(O)CCCN1C(=O)CSC1=S ... 95.3
Cc1cc(C(=O)Nc2cc(Nc3ncccc3-c3ncnc4nc[nH]c34)ccc2F)cc(C(C)(C)C#N)c1 ... 57.8
CCNCCNc1c(C)c(-c2ccc(C(F)(F)F)cc2)c(C#N)c2nc3ccccc3n12 ... 76.1

// query growth value for entry Nc1ncc(-c2ccc3ncnc(N4CCc5cc(F)c(Cl)cc54)c3c2)cc1C=O 20.1

Could you do the same for NC(=N\N=C/c1ccc(Cl)cc1Cl)/C(N)=N\N=C/c1ccc(Cl)cc1Cl , please? 89.2

Also C1=C2CCCC3=Cc4ccccc4OC23Oc2ccccc21 , if possible. 34.7

Also need COc1cc(/C=C2\C(=O)N(CCOc3cc(O)c4c(=O)cc(-c5ccccc5)oc4c3)c3ccccc32)cc(OC)c1O , thanks. 76.2

Please do the same for CCOC(=O)c1c(N)sc2cc(O)ccc12 as well. 103

Follow-up entry: CCOC(=O)C1=C(c2ccccc2)N=C2SC=C(c3cccc([N+](=O)[O-])c3)N2C1c1ccc(O)cc1 (stereo not given) 94.8
